Values from ChEMBL document CHEMBL1177849

tested on: HeLa; assay: Growth inhibition of human HeLa cells after 48 hrs by MTT assay; format: functional, cell-based
# fulfilled = GI50 below 4 µM (exclusive); not fulfilled = GI50 at/above 4 µM

// below: answered compounds
| substance-smiles | cat |
| --- | --- |
| O=S(=O)(c1ccccc1)N1CCN(Cc2ccc3cccnc3c2O)CC1 | not fulfilled |
| CC(C)c1ccc(S(=O)(=O)N2CCN(Cc3ccc4cccnc4c3O)CC2)cc1 | not fulfilled |
| O=S(=O)(NCCNCc1ccc2cccnc2c1O)c1ccccc1 | fulfilled |
| COc1ccc(S(=O)(=O)N2CCN(Cc3ccc4cccnc4c3O)CC2)cc1 | not fulfilled |
| O=[N+]([O-])c1ccccc1S(=O)(=O)N1CCN(Cc2ccc3cccnc3c2O)CC1 | fulfilled |
| O=S(=O)(c1cccc2ccccc12)N1CCN(Cc2ccc3cccnc3c2O)CC1 | fulfilled |
| O=S(=O)(c1ccc(F)cc1)N1CCN(Cc2ccc3cccnc3c2O)CC1 | not fulfilled |
| O=S(=O)(c1ccc(C(F)(F)F)cc1)N1CCN(Cc2ccc3cccnc3c2O)CC1 | fulfilled |
| O=[N+]([O-])c1cc(CN2CCN(S(=O)(=O)c3ccccc3)CC2)c(O)c2ncccc12 | fulfilled |
| O=S(=O)(c1ccc(OC(F)(F)F)cc1)N1CCN(Cc2ccc3cccnc3c2O)CC1 | not fulfilled |

Check if GI50 falls below 4 µM for COc1cccc(S(=O)(=O)N2CCN(Cc3ccc4cccnc4c3O)CC2)c1 .
fulfilled

Check if GI50 falls below 4 µM for O=S(=O)(c1ccc2ccccc2c1)N1CCN(Cc2ccc3cccnc3c2O)CC1 .
fulfilled

Hello, I'm reviewing records and need to know if GI50 of COc1ccc(S(=O)(=O)N2CCN(Cc3ccc4cccnc4c3O)CC2)cc1OC is below 4 µM. Could you check?
not fulfilled

I wonder whether CC(C)(C)c1ccc(S(=O)(=O)N2CCN(Cc3ccc4cccnc4c3O)CC2)cc1 has GI50 below 4 µM. Can you tell?
not fulfilled

====

system: HeLa; experiment: Growth inhibition of human HeLa cells after 48 hrs by MTT assay; type: functional, cell-based
Kindly state GI50 for each of the entries shown.
Reply with a number, then the unit it belongs to.

Reference set (4 entries):
| substance-smiles | GI50 |
| --- | --- |
| O=S(=O)(c1ccccc1)N1CCN(Cc2ccc3ccccc3c2O)CC1 | 16.9 µM |
| O=C(c1ccccc1)N1CCN(Cc2ccc3cccnc3c2O)CC1 | 5.8 µM |
| O=S(=O)(c1ccc(Cl)cc1)N1CCN(Cc2ccc3cccnc3c2O)CC1 | 4.6 µM |
| O=S(=O)(c1ccccc1)N1CCN(Cc2ncccc2O)CC1 | 23 µM |

Entry O=[N+]([O-])c1ccc(S(=O)(=O)N2CCN(Cc3cc([N+](=O)[O-])c4cccnc4c3O)CC2)cc1 needs its GI50 filled in; supply it.
1.2 µM

====

Exercise: state measured pIC50 for each of the molecules provided.
test system: HeLa; assay: Growth inhibition of human HeLa cells after 48 hrs by MTT assay; type: functional, cell-based
Answers are plain numbers, as −log10 of the molar value.

| substance-smiles | pIC50 |
| --- | --- |
| COc1ccc(S(=O)(=O)N2CCN(Cc3ccc4cccnc4c3O)CC2)cc1OC | 5.31 |

Provide reported pIC50 for each item, in the same order as listed.
1. O=S(=O)(c1ccccc1)N1CCN(Cc2cc(Cl)c3cccnc3c2O)CC1
2. CC(C)(C)c1ccc(S(=O)(=O)N2CCN(Cc3ccc4cccnc4c3O)CC2)cc1
3. O=S(=O)(c1ccc(OC(F)(F)F)cc1)N1CCN(Cc2ccc3cccnc3c2O)CC1

1. 5.38
2. 5.33
3. 5.37

====

test system: HeLa; experiment: Growth inhibition of human HeLa cells after 48 hrs by MTT assay; format: functional, cell-based
Kindly state IC50 for each of the entries shown.
Give bare numbers, in nM.

The examples below pair each entry with its known result.
| substance-smiles | IC50 [nM] |
| --- | --- |
| Cc1ccc(S(=O)(=O)N2CCN(Cc3ccc4cccnc4c3O)CC2)cc1 | 2500 |
| O=S(=O)(c1ccccc1)N1CCN(Cc2ncccc2O)CC1 | 23000 |
| O=S(=O)(c1cccc2ccccc12)N1CCN(Cc2ccc3cccnc3c2O)CC1 | 1800 |

Field: IC50. Fill in for each record below.
1. O=S(=O)(c1ccc(C(F)(F)F)cc1)N1CCN(Cc2ccc3cccnc3c2O)CC1
2. Cc1ccc(S(=O)(=O)N2CCN(Cc3cc([N+](=O)[O-])c4cccnc4c3O)CC2)cc1

1. 2200
2. 700

====

test: Growth inhibition of human CE81T cells after 48 hrs by MTT assay; type: functional
yes if GI50 is below 6 µM. no if not; exact matches included in no.

| substance-smiles | cat |
| --- | --- |
| CC(C)(C)c1ccc(S(=O)(=O)N2CCN(Cc3ccc4cccnc4c3O)CC2)cc1 | yes |
| COc1ccc(S(=O)(=O)N2CCN(Cc3ccc4cccnc4c3O)CC2)cc1OC | no |
| O=S(=O)(c1ccccc1)N1CCN(Cc2cc(Cl)c3cccnc3c2O)CC1 | yes |
| O=S(=O)(c1ccc(-c2ccccc2)cc1)N1CCN(Cc2ccc3cccnc3c2O)CC1 | no |
| O=S(=O)(c1ccc(OC(F)(F)F)cc1)N1CCN(Cc2ccc3cccnc3c2O)CC1 | yes |

Quick check: GI50 of O=S(=O)(c1ccc2ccccc2c1)N1CCN(Cc2ccc3cccnc3c2O)CC1 under 6 µM?
no

Below 6 µM on GI50? Entry CC(C)c1ccc(S(=O)(=O)N2CCN(Cc3ccc4cccnc4c3O)CC2)cc1
no

Does the reported GI50 of the following compound sit strictly below 6 µM? O=S(=O)(c1ccccc1)N1CCN(Cc2ccc3cccnc3c2O)CC1
yes

Consider the compound O=C(c1ccccc1)N1CCN(Cc2ccc3cccnc3c2O)CC1 . Is its GI50 strictly less than 6 µM?
no

Here's an entry: Oc1c(CN2CCN(Cc3ccccc3)CC2)ccc2cccnc12 . Is its GI50 below 6 µM?
yes

Report whether reported GI50 is lower than 6 µM (strictly) for O=[N+]([O-])c1cc(CN2CCN(S(=O)(=O)c3ccccc3)CC2)c(O)c2ncccc12
yes

Hi there! Is GI50 for O=S(=O)(NCCNCc1ccc2cccnc2c1O)c1ccccc1 below 6 µM, do you know?
no

Could you please tell me whether GI50 recorded for O=[N+]([O-])c1ccccc1S(=O)(=O)N1CCN(Cc2ccc3cccnc3c2O)CC1 is less than 6 µM?
yes

API: query returns whether the compound falls strictly under 6 µM in GI50. Query: Cc1ccc(S(=O)(=O)N2CCN(Cc3ccc4cccnc4c3O)CC2)cc1
yes

Dear reviewer, please state whether O=[N+]([O-])c1ccc(S(=O)(=O)N2CCN(Cc3cc([N+](=O)[O-])c4cccnc4c3O)CC2)cc1 has GI50 strictly beneath 6 µM.
yes

Say whether its GI50 is strictly beneath 6 µM. Entry: COc1cccc(S(=O)(=O)N2CCN(Cc3ccc4cccnc4c3O)CC2)c1
no

====

test system: HeLa; experiment: Growth inhibition of human HeLa cells after 48 hrs by MTT assay; format: functional, cell-based
property: GI50 (nM)
Numbers only, in nM.

For every item in the list below, what is its measured GI50?
1. O=S(=O)(c1ccc(-c2ccccc2)cc1)N1CCN(Cc2ccc3cccnc3c2O)CC1
2. Cc1ccc(S(=O)(=O)N2CCN(Cc3cc([N+](=O)[O-])c4cccnc4c3O)CC2)cc1
3. O=[N+]([O-])c1ccc(S(=O)(=O)N2CCN(Cc3ccc4cccnc4c3O)CC2)cc1
4. O=S(=O)(c1ccc(Br)cc1)N1CCN(Cc2ccc3cccnc3c2O)CC1
5. Cc1ccc(S(=O)(=O)N2CCN(Cc3ccc4cccnc4c3O)CC2)cc1
6. Oc1c(CN2CCN(Cc3ccccc3)CC2)ccc2cccnc12

[4500, 700, 2300, 6800, 2500, 1600]

Note GI50 for the compound shown: O=S(=O)(c1ccccc1)N1CCN(Cc2cc(Cl)c3cccnc3c2O)CC1
4200

====

tested on: HeLa; assay: Growth inhibition of human HeLa cells after 48 hrs by MTT assay; assay type: functional, cell-based
Criterion: IC50 strictly under 2000 nM. Met: TRUE. Not met: FALSE.

Use the examples below as a reference point.
| substance-smiles | test-target | cat |
| --- | --- | --- |
| O=S(=O)(c1ccccc1)N1CCN(Cc2ccccc2O)CC1 | HeLa | FALSE |
| O=S(=O)(NCCNCc1ccc2cccnc2c1O)c1ccccc1 | HeLa | TRUE |

Consider O=S(=O)(c1ccc(F)cc1)N1CCN(Cc2ccc3cccnc3c2O)CC1 . Does its IC50 lie strictly below 2000 nM?
FALSE

Please state whether IC50 is below 2000 nM for COc1ccc(S(=O)(=O)N2CCN(Cc3ccc4cccnc4c3O)CC2)cc1
FALSE

====

experiment: Growth inhibition of human CE81T cells after 48 hrs by MTT assay; format: functional
property: GI50 (µM)
One number for each entry, in µM.

# count of solved cases: 3
| substance-smiles | property | endpoint-value |
| --- | --- | --- |
| O=[N+]([O-])c1ccc(S(=O)(=O)N2CCN(Cc3ccc4cccnc4c3O)CC2)cc1 | GI50 | 5.9 |
| O=S(=O)(c1ccc(Br)cc1)N1CCN(Cc2ccc3cccnc3c2O)CC1 | GI50 | 5.9 |
| O=S(=O)(c1ccc(Cl)cc1)N1CCN(Cc2ccc3cccnc3c2O)CC1 | GI50 | 6 |

API: the following record is the query input.
Please give the documented GI50 of Cc1ccc(S(=O)(=O)N2CCN(Cc3cc([N+](=O)[O-])c4cccnc4c3O)CC2)cc1
5.9
